Each entry below carries its recorded relative % inhibition.
Tested on: P. falciparum NF54-pfs16-GFP late (IV-V) stage gametocytes
Assay: relative % inhibition of viable gametocyte number; higher = more gametocytocidal
Conditions: 0.5 µM; stage: late (IV-V) gametocyte; incubation 72 h
experimental.endpoint: relative % inhibition (%)

| compound | measured.value |
| --- | --- |
| CN(C)CCCNc1c2ccccc2nc2ccccc12 | 57.9 |
| O=C(Nc1ccc(CN2CCOCC2)cc1)c1ccc(-c2ccc(Br)cc2)o1 | 27.9 |
| O=C(Nc1cccc(C(F)(F)F)c1)c1cc(Cl)ccc1O | 15 |
| O=C(NCC(c1ccsc1)N1CCCCCC1)c1ccc(C(F)(F)F)cc1 (stereo not given) | -0.775 |
| CC1CCN(Cc2c(O)ccc3cc(-c4nc5ccccc5s4)c(=O)oc23)CC1 | 18.2 |
| O=C(Nc1ccccc1O)c1ccc(-c2ccc(Cl)cc2Cl)o1 | 19.3 |
| CCCCCCc1cc2cc(-c3csc(C=Cc4ccccc4)n3)c(=O)oc2cc1O | 31.2 |
| CCCCCC(=O)N1c2ccccc2N=C2CC(c3ccc(OC)c(OC)c3)CC(O)=C2C1c1ccc(C(F)(F)F)cc1 (stereo not given) | 32.8 |
| O=C(CSc1nccn2nc(-c3ccccc3)cc12)Nc1cc(C(F)(F)F)ccc1Cl | 15.1 |
| OC(CNCc1ccccc1)Cn1c2ccccc2c2ccccc21 (stereo not given) | 21.5 |
